Reported pIC50 values for a set of compounds
Target: IRAK1 (Homo sapiens, UniProt P51617)
Sequence (P51617 whole entry): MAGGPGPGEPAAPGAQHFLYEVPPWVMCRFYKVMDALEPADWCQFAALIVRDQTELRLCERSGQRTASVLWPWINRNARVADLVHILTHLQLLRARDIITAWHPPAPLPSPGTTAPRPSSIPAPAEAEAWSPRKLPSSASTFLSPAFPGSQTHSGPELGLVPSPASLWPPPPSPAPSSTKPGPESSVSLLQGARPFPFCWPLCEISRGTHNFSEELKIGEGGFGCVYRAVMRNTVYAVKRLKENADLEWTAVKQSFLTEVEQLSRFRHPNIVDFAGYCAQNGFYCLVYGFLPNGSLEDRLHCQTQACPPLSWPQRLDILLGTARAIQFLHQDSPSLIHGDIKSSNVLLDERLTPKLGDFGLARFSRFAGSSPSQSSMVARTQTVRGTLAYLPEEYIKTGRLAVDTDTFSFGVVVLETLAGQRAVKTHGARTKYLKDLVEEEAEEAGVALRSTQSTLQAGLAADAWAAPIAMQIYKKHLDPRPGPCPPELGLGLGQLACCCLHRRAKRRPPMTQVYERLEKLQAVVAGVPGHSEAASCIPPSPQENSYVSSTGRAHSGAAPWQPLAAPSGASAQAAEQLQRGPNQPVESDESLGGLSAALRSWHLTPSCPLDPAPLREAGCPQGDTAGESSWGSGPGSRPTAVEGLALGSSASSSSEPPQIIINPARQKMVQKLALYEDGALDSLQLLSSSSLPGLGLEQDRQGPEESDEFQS
Assay: IRAK1 Alexa kinase assay (TR-FRET, ADP tracer)
Type: biochemical
Settings: Table 1; read-out: IC50 IRAK1
Description: Select compounds described herein were evaluated for structure-activity analyses. For IRAK1, the following Alexa kinase assay procedure was followed: in the absence of an inhibitor, ADP formed by a kinase reaction will displace an Alexa Fluor 647 dye-labeled ADP tracer from an Eu3+-labeled anti-ADP antibody, resulting in a decrease in the time-resolved fluorescence resonance energy transfer (TR-FRET) signal. […]
pIC50: −log10 of the molar value.
PARAMETER: pIC50

* CCC(=O)Nc1cccc(C(=O)Nc2ccc(NC(=O)c3cccc(-c4ccn[nH]4)n3)cc2)c1 | 6.59
* C=CC(=O)Nc1ccc(C(=O)Nc2cccc(NC(=O)c3cccc(-c4ccn[nH]4)n3)c2)cc1 | 7.26
* C=CC(=O)Nc1cccc(C(=O)Nc2cccc(NC(=O)c3cccc(-c4ccn[nH]4)n3)c2)c1 | 7.60
* CN(C)C/C=C/C(=O)Nc1cccc(C(=O)Nc2ccc(NC(=O)c3cccc(-c4ccn[nH]4)n3)cc2)c1 | 7.29
* C=CC(=O)Nc1ccc(C(=O)Nc2ccc(NC(=O)c3cccc(-c4ccn[nH]4)n3)cc2)cc1 | 7.33
